experimental_system: BoNT/A LC (Clostridium botulinum, UniProt P0DPI0)
Sequence (P0DPI0 2-448 limits assumed): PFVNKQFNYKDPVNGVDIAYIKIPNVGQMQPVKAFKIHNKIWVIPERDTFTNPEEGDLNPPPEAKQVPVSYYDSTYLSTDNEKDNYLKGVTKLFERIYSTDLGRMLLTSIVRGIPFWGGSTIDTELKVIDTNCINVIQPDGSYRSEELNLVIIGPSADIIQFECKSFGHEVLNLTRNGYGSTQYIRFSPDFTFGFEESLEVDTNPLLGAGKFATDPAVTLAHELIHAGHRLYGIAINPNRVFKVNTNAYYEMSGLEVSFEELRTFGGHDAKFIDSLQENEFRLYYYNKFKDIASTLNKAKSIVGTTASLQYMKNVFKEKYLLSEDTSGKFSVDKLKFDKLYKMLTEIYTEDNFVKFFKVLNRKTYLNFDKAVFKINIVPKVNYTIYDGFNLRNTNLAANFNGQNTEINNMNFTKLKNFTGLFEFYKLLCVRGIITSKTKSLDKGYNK
protocol_description: biochemical
Assay type: biochemical, C. botulinum
condition_label: Ki′
observation_type: Ki

Q) Can you look up the measured Ki of O=c1ccc2cc3c(-c4ccc([N+](=O)[O-])cc4)coc3cc2o1 [Compound 1] for me?
A) 11.5 µM

====

experimental_system: BoNT/A LC (Clostridium botulinum)
protocol_description: biochemical
Assay type: binding, C. botulinum
observation_type: Kd (nM)
Give bare numbers, in nM.

Q) Can you look up the measured Kd of O=c1ccc2cc3c(-c4ccc([N+](=O)[O-])cc4)coc3cc2o1 for me?
A) 1310

====

experimental_system: BoNT/A LC (Clostridium botulinum, UniProt P0DPI0)
protocol_description: biochemical
Type: biochemical, C. botulinum
condition_label: Ki
observation_type: Ki (µM)
One number for each entry, in µM.

Q) Can you look up the measured Ki of O=c1ccc2cc3c(-c4ccc([N+](=O)[O-])cc4)coc3cc2o1 for me?
A) 5.8
